Recorded values, source patent US20030229053A1.

Each entry below lists one item and its recorded pIC50 value.
testTarget: HCV NS5B RNA-dependent RNA polymerase (Hepatitis C virus genotype 1b, UniProt P26663)
Sequence (P26663 2420-3010 limits assumed): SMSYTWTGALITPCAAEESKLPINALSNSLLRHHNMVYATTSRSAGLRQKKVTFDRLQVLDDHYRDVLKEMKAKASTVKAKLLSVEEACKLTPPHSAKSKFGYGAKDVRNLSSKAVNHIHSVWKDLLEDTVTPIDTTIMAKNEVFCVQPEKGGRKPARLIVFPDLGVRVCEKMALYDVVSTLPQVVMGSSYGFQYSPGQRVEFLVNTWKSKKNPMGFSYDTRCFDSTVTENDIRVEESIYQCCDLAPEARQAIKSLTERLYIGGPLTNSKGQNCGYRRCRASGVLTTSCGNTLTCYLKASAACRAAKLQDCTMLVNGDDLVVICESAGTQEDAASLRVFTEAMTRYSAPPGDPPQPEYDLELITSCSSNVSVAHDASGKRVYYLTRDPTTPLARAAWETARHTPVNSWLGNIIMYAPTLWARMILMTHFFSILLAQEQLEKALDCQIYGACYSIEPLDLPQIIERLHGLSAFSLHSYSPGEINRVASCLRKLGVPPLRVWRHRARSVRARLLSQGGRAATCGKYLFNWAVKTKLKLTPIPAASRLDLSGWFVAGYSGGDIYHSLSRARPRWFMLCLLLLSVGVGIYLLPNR
protocolSummary: In vitro RNA-dependent RNA polymerase assay (Assay 1), polyA/oligo dT, TCA precipitation
Assay type: biochemical
conditionDetails: polyA/oligo dT template/primer, 200 ng NS5B, 2 h at 22° C.; read-out: RNA pol Assay 1 IC50 (μm)
pIC50: −log10 of the molar value.

Below, 5 molecules whose answers are already recorded.
CCc1cc(Cl)ccc1C(=O)N(Cc1cccc(Br)c1)[C@@H](Cc1ccccc1)C(=O)O [compound #46] : > 5.30
O=C(O)[C@H](Cc1ccccc1)N(Cc1cc(Br)cs1)C(=O)c1ccc(Cl)cc1Cl [compound #99] : > 5.30
Cc1ccc(C(=O)N(Cc2cccc(-c3cc4ccccc4o3)c2)[C@@H](Cc2ccccc2)C(=O)O)c(C)c1 [compound #31] : > 5.30
CC(C)=CCN(C(=O)c1ccc(Cl)cc1Cl)[C@@H](Cc1ccccc1)C(=O)O [compound #115] : 4.70 to 5.30
CCOC(=O)c1ccccc1-c1ccc(CN(C(=O)c2ccc(Cl)cc2Cl)[C@@H](Cc2ccccc2)C(=O)O)o1 [compound #72] : > 5.30

Value of measured pIC50 for the entry COc1cc(C)c(S(=O)(=O)N(Cc2ccc(-c3cc4ccccc4o3)cc2)C(Cc2ccccc2)C(=O)O)c(C)c1C (stereo in doubt) [compound #6] : > 5.30

Value of measured pIC50 for the entry COc1cc(C)c(S(=O)(=O)N(Cc2cccc(Br)c2)[C@@H](Cc2ccccc2)C(=O)O)c(C)c1C [compound #17] : 4.70 to 5.30

====

Each entry below lists one item and its recorded IC50 value.
testTarget: recombinant HCV NS5B (Hepatitis C virus genotype 1b)
Sequence (P26663 2420-3010 limits assumed): as above
protocolSummary: biochemical
conditionDetails: flashplate, polyrA/biotinylated-oligo dT, 100 nM NS5B, 2 hrs at room temperature; read-out: RNA pol Assay 2 IC50 (μm)

CC(C)(C(=O)O)N(Cc1ccc(-c2cccc(C(F)(F)F)c2)o1)C(=O)c1ccc(Cl)cc1Cl [compound #147] : 5 to 20 µM
O=C(O)[C@H](Cc1ccccc1)N(Cc1sccc1-c1cc(F)cc(F)c1)C(=O)c1ccc(Cl)cc1Cl [compound #154] : < 5 µM
O=C(O)[C@H](Cc1ccccc1)N(Cc1sccc1-c1ccc(Cl)cc1Cl)C(=O)c1ccc(Cl)cc1Cl [compound #157] : 5 to 20 µM
O=C(O)[C@H](Cc1ccccc1)N(Cc1sccc1-c1ccc(F)c(Cl)c1)C(=O)c1ccc(Cl)cc1Cl [compound #145] : 5 to 20 µM
CS(=O)(=O)c1ccc(CN(C(=O)c2ccc(Cl)cc2Cl)[C@@H](Cc2ccccc2)C(=O)O)cc1 [compound #150] : < 5 µM
O=C(O)[C@H](Cc1ccccc1)N(Cc1sccc1-c1cccc(F)c1)C(=O)c1ccc(Cl)cc1Cl [compound #161] : 5 to 20 µM
N#Cc1cccc(-c2ccsc2CN(C(=O)c2ccc(Cl)cc2Cl)[C@@H](Cc2ccccc2)C(=O)O)c1 [compound #162] : < 5 µM
N#Cc1ccc(CN(C(=O)c2ccc(Cl)cc2Cl)[C@@H](Cc2ccccc2)C(=O)O)cc1 [Compound #204] : 5 to 20 µM
O=C(O)[C@H](Cc1ccccc1)N(Cc1sccc1-c1ccc(F)cc1)C(=O)c1ccc(Cl)cc1Cl [compound #184] : < 5 µM
COC(=O)c1cccc(CN(C(=O)c2ccc(Cl)cc2Cl)[C@@H](Cc2ccccc2)C(=O)O)c1 [Compound #117] : < 5 µM

Value of measured IC50 for the entry O=C(O)C(Cc1ccccc1)N(Cc1cc(Cl)cc(Cl)c1)C(=O)c1ccc(Cl)cc1Cl (stereo in doubt) [compound #142] : < 5 µM

Value of measured IC50 for the entry O=C(O)C(Cc1ccccc1)N(C(=O)c1ccc(Cl)cc1Cl)c1cccc(Br)c1 (centres unmarked) [compound #190] : 5 to 20 µM

Value of measured IC50 for the entry O=C(O)[C@H](Cc1ccccc1)N(Cc1sccc1-c1ccc(Cl)c(Cl)c1)C(=O)c1ccc(Cl)cc1Cl [compound #155] : < 5 µM

Value of measured IC50 for the entry O=C(O)[C@H](Cc1ccccc1)N(Cc1cnc(-c2cccc([N+](=O)[O-])c2)s1)C(=O)c1ccc(Cl)cc1Cl [compound #64] : < 5 µM

Value of measured IC50 for the entry O=C(O)C(Cc1ccccc1)N(Cc1ccsc1)C(=O)c1ccc(Cl)cc1Cl (stereo in doubt) [compound #143] : < 5 µM

Value of measured IC50 for the entry O=C(O)[C@H](Cc1ccccc1)N(Cc1cccc([N+](=O)[O-])c1)C(=O)c1ccc(Cl)cc1Cl [Compound #53] : < 5 µM

Value of measured IC50 for the entry O=C(O)[C@H](Cc1ccccc1)N(Cc1sccc1-c1cc(C(F)(F)F)cc(C(F)(F)F)c1)C(=O)c1ccc(Cl)cc1Cl [compound #181] : 5 to 20 µM

Value of measured IC50 for the entry O=C(O)[C@H](Cc1ccccc1)N(C(=O)c1ccc(Cl)cc1Cl)c1ccc(Br)cc1 [compound #191] : > 20 µM

Value of measured IC50 for the entry N#Cc1ccccc1CN(C(=O)c1ccc(Cl)cc1Cl)[C@@H](Cc1ccccc1)C(=O)O [Compound #203] : 5 to 20 µM

Value of measured IC50 for the entry O=C(O)C(Cc1ccccc1)N(Cc1cccc(-c2nn[nH]n2)c1)C(=O)c1ccc(Cl)cc1Cl (centres unmarked) [Compound #200] : < 5 µM

Value of measured IC50 for the entry COc1ccc(C(C)C)cc1-c1ccsc1CN(C(=O)c1ccc(Cl)cc1Cl)[C@@H](Cc1ccccc1)C(=O)O [compound #178] : 5 to 20 µM

Value of measured IC50 for the entry O=C(O)[C@H](Cc1ccccc1)N(Cc1sccc1-c1cccc(C(F)(F)F)c1)C(=O)c1ccc(Cl)cc1Cl [compound #180] : 5 to 20 µM

Value of measured IC50 for the entry O=C(O)[C@H](Cc1ccccc1)N(Cc1ccc[n+]([O-])c1)C(=O)c1ccc(Cl)cc1Cl [Compound #210] : < 5 µM

Value of measured IC50 for the entry N#Cc1cccc(CN(C(=O)c2ccc(Cl)cc2Cl)[C@@H](Cc2ccccc2)C(=O)O)c1 [compound #54] : < 5 µM

Value of measured IC50 for the entry O=C(O)[C@H](Cc1ccccc1)N(C[C@@H]1CCCN1)C(=O)c1ccc(Cl)cc1Cl [compound #167] : 5 to 20 µM

Value of measured IC50 for the entry O=C(O)[C@H](Cc1ccccc1)N(Cc1ccccc1Br)C(=O)c1ccc(Cl)cc1Cl [compound #187] : 5 to 20 µM

Value of measured IC50 for the entry CCOC(=O)c1ccccc1-c1ccsc1CN(C(=O)c1ccc(Cl)cc1Cl)[C@@H](Cc1ccccc1)C(=O)O [compound #159] : 5 to 20 µM

Value of measured IC50 for the entry O=C(O)C(Cc1ccccc1)N(Cc1ccc(F)c(C(F)(F)F)c1)C(=O)c1ccc(Cl)cc1Cl (centres unmarked) [compound #173] : 5 to 20 µM

Value of measured IC50 for the entry CN(C(=O)c1ccc(Cl)cc1Cl)[C@H](Cc1ccc(Br)cc1)C(=O)O [compound #189] : < 5 µM
